Below: a set of entries, each annotated with reported pEC50 hSCTR.
# target_or_test_system: human secretin receptor (hSCTR) (human, UniProt P47872 23-440)
# Sequence (P47872 23-440): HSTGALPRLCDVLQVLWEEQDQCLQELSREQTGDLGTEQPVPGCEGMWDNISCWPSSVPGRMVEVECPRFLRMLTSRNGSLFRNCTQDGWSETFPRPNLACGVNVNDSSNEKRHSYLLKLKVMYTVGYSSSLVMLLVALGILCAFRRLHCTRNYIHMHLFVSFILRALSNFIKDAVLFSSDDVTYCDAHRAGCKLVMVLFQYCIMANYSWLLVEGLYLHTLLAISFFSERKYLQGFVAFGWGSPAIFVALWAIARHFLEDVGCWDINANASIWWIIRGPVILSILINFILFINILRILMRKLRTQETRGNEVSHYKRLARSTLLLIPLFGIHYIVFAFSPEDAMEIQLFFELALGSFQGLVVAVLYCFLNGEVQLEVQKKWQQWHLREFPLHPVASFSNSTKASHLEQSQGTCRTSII
# assay_comment: cell-based or functional assay
Numbered stars: 1 amine (or outer) side, 2 acyl side, 3 side chain; on linkers, the order of the positions; unused ones are H or OH. Square brackets hold non-standard residues; d marks the D form. Side chains are listed from the residue outwards. Ends that are not written are not given here. * marks the point of attachment. C20 diacid = O=C(O)CCCCCCCCCCCCCCCCCCC(=O)*; γGlu = O=C(O)[C@H](CCC(=O)[*:2])N[*:1]; AEEA = NCCOCCOCC(=O)O; Aib = CC(C)(N)C(=O)O

// below: answered binders
binder	reported_value
H[Aib]EGTFTSDVSRLK([AEEA-AEEA-γGlu-C20 diacid])ELAA[Aib]QRFLEHLV-NH2 (also: K14 lipid also given as C18DA[γE][OEG][OEG]-) [SEQ ID NO: 10]	6.3 -log M
H[Aib]EGTFTSDVSYLK([AEEA-AEEA-γGlu-C20 diacid])ELAAAQRFLEHLV-NH2 [SEQ ID NO: 86]	5.4 -log M
H[Aib]EGTFTSDVSVLK([AEEA-AEEA-γGlu-C20 diacid])E[Aib]AAQQRFLEHLV-NH2 [SEQ ID NO: 40]	6.4 -log M
H[Aib]EGTFTSDVSYLKEEA[Aib]NQRFLEHLV-NH2 (not fully specified (residue 14)) [SEQ ID NO: 131]	5.3 -log M
H[Aib]EGTFTSDVSFLK([AEEA-AEEA-γGlu-C20 diacid])EFAAAQRFLEHLV-NH2 [SEQ ID NO: 84]	5.4 -log M

// next entry
## Input Look up pEC50 hSCTR for this binder: H[Aib]EGTFTSDVSYLK([AEEA-AEEA-γGlu-C20 diacid])EEA[Aib]LQRFLEWLV-NH2 [SEQ ID NO: 169]
## Output 6.3 -log M
